assay: AUC (0 to infinity) in male Sprague-Dawley rat at 2 mg/kg, iv measured after 8 hrs by LC-MS analysis; type: ADME, organism-based; details: in vivo
QUANTITY: AUC(0-inf)
Note: state the figure and append the unit.

Summary for this molecule, "COc1ccc2cc(-c3ccc(NS(=O)(=O)C(F)(F)F)cc3)ncc2c1O" : AUC(0-inf) is 917 ng·h/mL

----------
test: AUC (0 to infinity) in male Sprague-Dawley rat at 100 mg/kg, po measured after 8 hrs by LC-MS analysis; format: ADME, organism-based; details: in vivo
QUANTITY: AUC(0-inf) (ng·h/mL)
One number for each entry, in ng·h/mL.

For reference, reported AUC(0-inf) for "COc1ccc2cc(-c3ccc(NS(=O)(=O)C(F)(F)F)cc3)ncc2c1O" stands at 28400

----------
test: Cmax in male Sprague-Dawley rat at 100 mg/kg, po measured after 8 hrs by LC-MS analysis; assay type: ADME, organism-based; settings: in vivo
QUANTITY: Cmax
Dear colleague, please send the value followed by its unit.

The reported value for "COc1ccc2cc(-c3ccc(NS(=O)(=O)C(F)(F)F)cc3)ncc2c1O" in terms of Cmax is 5190 ng/mL

----------
# Tryptophan 2,3-dioxygenase (Homo sapiens): IC50 values follow
# Sequence (P48775 whole entry): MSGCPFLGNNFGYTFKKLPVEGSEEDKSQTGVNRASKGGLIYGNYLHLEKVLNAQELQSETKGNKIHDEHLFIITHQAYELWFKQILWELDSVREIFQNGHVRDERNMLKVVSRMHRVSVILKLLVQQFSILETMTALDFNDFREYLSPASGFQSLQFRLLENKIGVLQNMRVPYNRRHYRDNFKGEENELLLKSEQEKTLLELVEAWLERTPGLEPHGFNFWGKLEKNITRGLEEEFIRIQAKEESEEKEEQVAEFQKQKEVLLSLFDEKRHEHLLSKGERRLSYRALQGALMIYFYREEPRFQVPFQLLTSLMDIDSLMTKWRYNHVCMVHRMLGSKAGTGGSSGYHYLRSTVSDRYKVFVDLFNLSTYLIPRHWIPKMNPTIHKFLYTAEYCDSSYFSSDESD
Numbers only, in µM.

// for each molecule in input: emit IC50
1. COc1ccc2cc(-c3ccc(NS(=O)(=O)C4CC4)cc3)ncc2c1O
2. COc1ccc2cc(-c3ccc(NC(=O)c4ccc(C)cc4)cc3)ncc2c1O
3. COc1ccc2cc(-c3ccc(NC(=O)Nc4ccccc4)cc3)ncc2c1O

Found:
3.36
45.3
14.3

----------
assay: AUC (0 to t) in male Sprague-Dawley rat at 20 mg/kg, ip measured after 8 hrs by LC-MS analysis; format: ADME, organism-based; conditions: in vivo
QUANTITY: AUC(0-t) at 8 h (ng·h/mL)
One number for each entry, in ng·h/mL.

Value of measured AUC(0-t) at 8 h for the entry "COc1ccc2cc(-c3ccc(NS(=O)(=O)C(F)(F)F)cc3)ncc2c1O" : 6690

----------
target: Indoleamine 2,3-dioxygenase 1 (Homo sapiens, UniProt P14902); test: Inhibition of N-terminal His-tagged recombinant human IDO1 extracted from Escherichia coli Transetta (DE3) using L-tryptophan as substrate preincubated for 5 mins followed by substrate addition and measured after 1 hrs by absorbance based microplate reader
Sequence (P14902 whole entry): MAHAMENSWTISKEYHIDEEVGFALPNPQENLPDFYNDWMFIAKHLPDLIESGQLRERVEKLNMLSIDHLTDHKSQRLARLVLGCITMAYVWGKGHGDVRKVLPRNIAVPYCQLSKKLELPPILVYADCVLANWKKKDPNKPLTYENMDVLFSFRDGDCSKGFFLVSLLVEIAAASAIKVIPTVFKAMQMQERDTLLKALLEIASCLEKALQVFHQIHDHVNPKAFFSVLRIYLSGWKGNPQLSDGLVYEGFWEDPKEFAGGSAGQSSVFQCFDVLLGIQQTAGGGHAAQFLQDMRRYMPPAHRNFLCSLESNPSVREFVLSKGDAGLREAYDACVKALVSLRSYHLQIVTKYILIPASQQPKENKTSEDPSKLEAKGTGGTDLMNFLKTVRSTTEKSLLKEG
QUANTITY: IC50

Use these answered entries as a reference point.
1. COc1ccc2cc(-c3ccc(C(F)(F)F)cc3)ncc2c1O
15.3 µM
2. COc1ccc2cc(-c3ccc(C)cc3)ncc2c1O
> 100 µM
3. COc1ccc2cc(-c3cccnc3)ncc2c1OC
> 100 µM
4. COc1ccc2cc(-c3cc4ccccc4o3)ncc2c1OC
> 100 µM
5. COc1ccc2cc(-c3ccc(F)cc3)ncc2c1O
> 100 µM

Here is another molecule to look at.
Record summary for "COc1ccc2cc(-c3ccc(NC(=O)c4ccc(C)cc4)cc3)ncc2c1O" : reported IC50 = > 100 µM

----------
assay: Clearance in male Sprague-Dawley rat at 100 mg/kg, po measured after 8 hrs by LC-MS analysis; format: ADME, organism-based; details: in vivo
QUANTITY: CL/F
Please provide the amount together with its unit, number first.

According to the records, this molecule "COc1ccc2cc(-c3ccc(NS(=O)(=O)C(F)(F)F)cc3)ncc2c1O" displays CL/F of 59.7 mL/min/kg
